The reader will find reported microsomal CLint values listed item by item below.
Assay: HLM, clearance in liver microsomes
Type: in vitro ADME, human
Details: human, human liver microsomes
MEASURE: microsomal CLint (µL/min/mg)

>>> numeric_value("COc1ccc(CSCC(N)C(=O)O)cc1 (centres unmarked)")
7
>>> numeric_value("COc1ccc(C2(SCC(N)C(=O)O)COC2)cc1 (centres unmarked)")
7

----------
Experiment: RRCK cell membrane permeability
Format: in vitro ADME
Settings: dog, MDCK
MEASURE: Papp (×10⁻⁶ cm/s)

>>> numeric_value("COc1ccc(CSCC(N)C(=O)O)cc1 (centres unmarked)")
1.3
>>> numeric_value("COc1ccc(C2(SCC(N)C(=O)O)COC2)cc1 (centres unmarked)")
0.1

Numbers sourced from paper PMC5814735.
